System: biotinyl-Trp-oxazolone
Assay: self-aminoacylation, catalytic enhancement (BWO) (fold over background); higher = more active; k-Seq, kA / k0A0; sequences stand for … in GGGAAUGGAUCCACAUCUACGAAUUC…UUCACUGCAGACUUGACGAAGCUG
This sample holds only a part of the variants without activity.
Recorded self-aminoacylation for the following sequences
quantityName: self-aminoacylation

chain="CCACACUUCAAGCAAUCUGAC [Fam1B.1 aminoacylation ribozyme variant]" measvalue=0.429
chain="AAGUUUGCUAAUAGUCGCUAA [Fam3.1 aminoacylation ribozyme variant]" measvalue=1.53
chain="CUACUACAAACGAUCGGUCUG [Fam1A.1 aminoacylation ribozyme variant]" measvalue=0.607
chain="AUUACCCUGGUCAUCGUAUGA [Fam2.1 aminoacylation ribozyme variant]" measvalue=0.855

---

Test system: biotinyl-Phe-oxazolone
Test: self-aminoacylation, catalytic enhancement (BFO) (fold over background); higher = more active; k-Seq, kA / k0A0; sequences stand for … in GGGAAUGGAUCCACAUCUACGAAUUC…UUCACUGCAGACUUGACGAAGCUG
This sample holds only a part of the variants without activity.
Recorded self-aminoacylation for the following sequences
quantityName: self-aminoacylation

chain="AUUCACCUAUGUCAUCGGCUG [Fam2.2 aminoacylation ribozyme variant]" assayedsystem=biotinyl-Phe-oxazolone quantityname=self-aminoacylation measvalue=0.644
chain="ACAAACUUCAAGCAAUCGGUC [Fam1B.1 aminoacylation ribozyme variant]" assayedsystem=biotinyl-Phe-oxazolone quantityname=self-aminoacylation measvalue=15
chain="AUUCAGCUAGGUCCUCGGGUG [Fam2.2 aminoacylation ribozyme variant]" assayedsystem=biotinyl-Phe-oxazolone quantityname=self-aminoacylation measvalue=55.4
chain="AAGUUUUCUAAUCGUCGCAAG [Fam3.1 aminoacylation ribozyme variant]" assayedsystem=biotinyl-Phe-oxazolone quantityname=self-aminoacylation measvalue=2.56
chain="CCACACUCCAAACAAUCGGUC [Fam1B.1 aminoacylation ribozyme variant]" assayedsystem=biotinyl-Phe-oxazolone quantityname=self-aminoacylation measvalue=10.9
chain="AAGUUUGCUACUAGUCGCAAC [Fam3.1 aminoacylation ribozyme variant]" assayedsystem=biotinyl-Phe-oxazolone quantityname=self-aminoacylation measvalue=0.697
chain="AUUACCCUGGUCAUCGAGUCG [Fam2.1 aminoacylation ribozyme variant]" assayedsystem=biotinyl-Phe-oxazolone quantityname=self-aminoacylation measvalue=0.759
chain="AUUACCCGGGUCAUCGAGAGA [Fam2.1 aminoacylation ribozyme variant]" assayedsystem=biotinyl-Phe-oxazolone quantityname=self-aminoacylation measvalue=0.475
chain="CGACUUCAAACAAUGGGUCUG [Fam1A.1 aminoacylation ribozyme variant]" assayedsystem=biotinyl-Phe-oxazolone quantityname=self-aminoacylation measvalue=0.777

---

Recorded self-aminoacylation for the following sequences
Tested on: biotinyl-Ile-oxazolone
Assay: self-aminoacylation, catalytic enhancement (BIO) (fold over background); higher = more active; k-Seq, kA / k0A0; sequences stand for … in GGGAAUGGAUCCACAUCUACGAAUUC…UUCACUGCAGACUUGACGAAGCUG
This sample holds only a part of the variants without activity.
quantityName: self-aminoacylation

chain="AUUCAUCUAGGUCAACGGGUG [Fam2.2 aminoacylation ribozyme variant]" quantityname=self-aminoacylation measvalue=2.6
chain="AAUACCCUUGUCAUCGAGUGA [Fam2.1 aminoacylation ribozyme variant]" quantityname=self-aminoacylation measvalue=2.42
chain="AUUACCCCCGUCAUCGAGUGA [Fam2.1 aminoacylation ribozyme variant]" quantityname=self-aminoacylation measvalue=2.84
chain="AAGUUUGCUAAUAGUCCCCAG [Fam3.1 aminoacylation ribozyme variant]" quantityname=self-aminoacylation measvalue=1
chain="AGUCACCUAGGUCAUCCGGUG [Fam2.2 aminoacylation ribozyme variant]" quantityname=self-aminoacylation measvalue=5.6

---

Tested on: biotinyl-Val-oxazolone
Assay: self-aminoacylation, catalytic enhancement (BVO) (fold over background); higher = more active; k-Seq, kA / k0A0; sequences stand for … in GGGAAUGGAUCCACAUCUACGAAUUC…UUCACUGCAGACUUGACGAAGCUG
Variants at the floor of the assay were thinned out.
quantityName: self-aminoacylation

chain="AAGUUUGCUAAUUGGCGCAAG [Fam3.1 aminoacylation ribozyme variant]" measvalue=0.935
chain="CCACACUGCAAGCGAUCGGUC [Fam1B.1 aminoacylation ribozyme variant]" measvalue=1.57
chain="AUUCUCCCAGGUCAUCGGGUG [Fam2.2 aminoacylation ribozyme variant]" measvalue=6.91
chain="CCACUUCAGACAAUCGGUCUG [Fam1A.1 aminoacylation ribozyme variant]" measvalue=1.65

---

Recorded self-aminoacylation for the following sequences
Test system: biotinyl-Val-oxazolone
Experiment: self-aminoacylation, catalytic enhancement (BVO) (fold over background); higher = more active; k-Seq, kA / k0A0; sequences stand for … in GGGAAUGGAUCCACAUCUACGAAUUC…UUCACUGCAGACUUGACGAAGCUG
This sample holds only a part of the variants without activity.
quantityName: self-aminoacylation

chain="AUUCUCCUAGGUCAUCGAGUG [Fam2.2 aminoacylation ribozyme variant]" measvalue=3.77
chain="AUUCCCCUGGUCAUCGAGUGA [Fam2.1 aminoacylation ribozyme variant]" measvalue=4.37
chain="AUUACCCGGGUCAUCGAGAGA [Fam2.1 aminoacylation ribozyme variant]" measvalue=1.22
chain="ACGUUUGCGAAUAGUCGCAAG [Fam3.1 aminoacylation ribozyme variant]" measvalue=1.45
chain="CUUGUUCAAACAAUCGGUCUG [Fam1A.1 aminoacylation ribozyme variant]" measvalue=0.967
chain="AUCACCCUGGUCAUCCAGUGA [Fam2.1 aminoacylation ribozyme variant]" measvalue=3.61
chain="GAUACCCUGGUCAUCGAGUGA [Fam2.1 aminoacylation ribozyme variant]" measvalue=5.43
chain="AUUACACUGGUCAUCGAGUGC [Fam2.1 aminoacylation ribozyme variant]" measvalue=1.05
chain="CCACACUUCAAGCGAGCGGUC [Fam1B.1 aminoacylation ribozyme variant]" measvalue=1.11

---

Test system: biotinyl-Met-oxazolone
Assay: self-aminoacylation, catalytic enhancement (BMO) (fold over background); higher = more active; k-Seq, kA / k0A0; sequences stand for … in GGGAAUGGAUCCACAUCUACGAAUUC…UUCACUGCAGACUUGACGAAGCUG
This sample holds only a part of the variants without activity.
quantityName: self-aminoacylation

chain="AUUCACCUAGGUCAUCUGUUG [Fam2.2 aminoacylation ribozyme variant]" quantityname=self-aminoacylation measvalue=0.564
chain="AAGUUUGCUGAGAGUCGCAAG [Fam3.1 aminoacylation ribozyme variant]" quantityname=self-aminoacylation measvalue=1.01
chain="AAGUUUGCUAAUCGUCGCAUG [Fam3.1 aminoacylation ribozyme variant]" quantityname=self-aminoacylation measvalue=0.922
chain="AAGCUUGCCAAUAGUCGCAAG [Fam3.1 aminoacylation ribozyme variant]" quantityname=self-aminoacylation measvalue=2.48
chain="CCGCAAUUCAAGCAAUCGGUC [Fam1B.1 aminoacylation ribozyme variant]" quantityname=self-aminoacylation measvalue=1.73
chain="AAGUUUACUACUAGUCGCAAG [Fam3.1 aminoacylation ribozyme variant]" quantityname=self-aminoacylation measvalue=1.46
chain="AUUCGCCCAGGUCAUCGGGUG [Fam2.2 aminoacylation ribozyme variant]" quantityname=self-aminoacylation measvalue=4.75
chain="ACUCGCCUAGGUCAUCGGGUG [Fam2.2 aminoacylation ribozyme variant]" quantityname=self-aminoacylation measvalue=9.99
chain="ACACACUUCAAGCAUUCGGUC [Fam1B.1 aminoacylation ribozyme variant]" quantityname=self-aminoacylation measvalue=1.68
chain="AAGUGUGCGAAUAGUCGCAAG [Fam3.1 aminoacylation ribozyme variant]" quantityname=self-aminoacylation measvalue=1.79
chain="AAGUUCGCUAAUUGUCGCAAG [Fam3.1 aminoacylation ribozyme variant]" quantityname=self-aminoacylation measvalue=1.3
chain="AUCCACCCAGGUCAUCGGGUG [Fam2.2 aminoacylation ribozyme variant]" quantityname=self-aminoacylation measvalue=5.87
chain="AUACUGCAAACAAUCGGUCUG [Fam1A.1 aminoacylation ribozyme variant]" quantityname=self-aminoacylation measvalue=1.09
chain="AAGUUUGAUAGUAGUCGCAAG [Fam3.1 aminoacylation ribozyme variant]" quantityname=self-aminoacylation measvalue=1.17
chain="AUUCACCUGGUUCAUCGGGUG [Fam2.2 aminoacylation ribozyme variant]" quantityname=self-aminoacylation measvalue=3.08
chain="AUUACCCUGGUCAUCAAGCGA [Fam2.1 aminoacylation ribozyme variant]" quantityname=self-aminoacylation measvalue=1
chain="CUACUUCAAACAAUCGUUUUG [Fam1A.1 aminoacylation ribozyme variant]" quantityname=self-aminoacylation measvalue=0.603
chain="AUUACCCCUGUCAUCGAGUGA [Fam2.1 aminoacylation ribozyme variant]" quantityname=self-aminoacylation measvalue=4.96
chain="CUACUUCAAACAAUUGGACUG [Fam1A.1 aminoacylation ribozyme variant]" quantityname=self-aminoacylation measvalue=0.633
chain="AAGUUUGCUAAUACUCGCAAA [Fam3.1 aminoacylation ribozyme variant]" quantityname=self-aminoacylation measvalue=1.22
chain="CCACACUUCAAGCGAUCGGUU [Fam1B.1 aminoacylation ribozyme variant]" quantityname=self-aminoacylation measvalue=1.48
chain="CUACUUUAAACAAUCGGUCGG [Fam1A.1 aminoacylation ribozyme variant]" quantityname=self-aminoacylation measvalue=1.08
chain="CCACACUUCAAGAAAUCGGGC [Fam1B.1 aminoacylation ribozyme variant]" quantityname=self-aminoacylation measvalue=1.82
chain="AUCACCCCGGUCAUCGAGUGA [Fam2.1 aminoacylation ribozyme variant]" quantityname=self-aminoacylation measvalue=8.33
chain="CUACUUCAAUCAACCGGUCUG [Fam1A.1 aminoacylation ribozyme variant]" quantityname=self-aminoacylation measvalue=0.525
chain="CCACACCACAAGCAAUCGGUC [Fam1B.1 aminoacylation ribozyme variant]" quantityname=self-aminoacylation measvalue=0.999
chain="CUUACCCUGGUCAACGAGUGA [Fam2.1 aminoacylation ribozyme variant]" quantityname=self-aminoacylation measvalue=5.06
chain="AUUCACCUGGGUCCUCGGGUG [Fam2.2 aminoacylation ribozyme variant]" quantityname=self-aminoacylation measvalue=6.49
chain="AUUACCCUGUGCAUCGAGUGA [Fam2.1 aminoacylation ribozyme variant]" quantityname=self-aminoacylation measvalue=6.14
chain="CUACACUUCAAGCACUCGGUC [Fam1B.1 aminoacylation ribozyme variant]" quantityname=self-aminoacylation measvalue=0.786
chain="CCACUCUUCAAGCCAUCGGUC [Fam1B.1 aminoacylation ribozyme variant]" quantityname=self-aminoacylation measvalue=1.1
chain="CAACACUUCAAGCAAUGGGUC [Fam1B.1 aminoacylation ribozyme variant]" quantityname=self-aminoacylation measvalue=0.834
chain="AUUCACCAAGGCCAUCGGGUG [Fam2.2 aminoacylation ribozyme variant]" quantityname=self-aminoacylation measvalue=5.09
chain="AUACACCUACGUCAUCGGGUG [Fam2.2 aminoacylation ribozyme variant]" quantityname=self-aminoacylation measvalue=4.6
chain="CCGCACUUCCAGCAAUCGGUC [Fam1B.1 aminoacylation ribozyme variant]" quantityname=self-aminoacylation measvalue=0.995
